Data credit: patent US8883782B2

molecular target: Beta Secretase enzyme (BACE) (Homo sapiens); assay: In vitro enzymatic BACE FRET (fluorescence resonance energy transfer) assay; type: biochemical; conditions: average IC50, enzyme assay; read-out: BACE 1 FRET assay
Sequence (P56817 46-501, species assumed): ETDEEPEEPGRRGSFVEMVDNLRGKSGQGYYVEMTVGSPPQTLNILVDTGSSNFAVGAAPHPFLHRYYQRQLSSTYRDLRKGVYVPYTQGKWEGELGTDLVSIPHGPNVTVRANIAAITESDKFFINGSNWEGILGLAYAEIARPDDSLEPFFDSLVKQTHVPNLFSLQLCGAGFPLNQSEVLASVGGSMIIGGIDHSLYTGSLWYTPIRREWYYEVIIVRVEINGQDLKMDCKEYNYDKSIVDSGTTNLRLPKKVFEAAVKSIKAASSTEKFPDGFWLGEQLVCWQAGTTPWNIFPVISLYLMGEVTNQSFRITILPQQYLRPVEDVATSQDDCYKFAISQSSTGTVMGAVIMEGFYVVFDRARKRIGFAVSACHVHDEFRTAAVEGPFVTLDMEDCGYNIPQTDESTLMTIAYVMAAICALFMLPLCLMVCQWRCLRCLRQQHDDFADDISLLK
measuredProperty: IC50 (nM)

Example compounds with recorded IC50:
• CC1(C#Cc2cnc3c(c2)[C@]2(COC(N)=N2)c2cc(-c4cncc(C(F)(F)F)c4)ccc2O3)COC1 [Example 187] = 2.9
• COC(C)(C)C#Cc1cnc2c(c1)[C@@]1(COC(N)=N1)c1cc(-c3cncnc3)c(F)cc1O2 [Example 644] = 68.2
• COc1ncccc1-c1ccc2c(c1)[C@@]1(COC(N)=N1)c1cc(N3CCC(F)(F)CC3)nc(OC)c1O2 [Example 852] = 92.6
• NC1=N[C@@]2(CS1)c1cc(-c3ccc(F)nc3)ccc1Oc1ncc(Br)cc12 [Example 963] = 43.3
• CC1(C)CC(c2ccc3c(c2)[C@]2(COC(N)=N2)c2cc(-c4cncnc4)c(F)cc2O3)=CCO1 [Example 505] = 2.6
• NC1=N[C@@]2(CS1)c1cc(-c3cccnc3F)ccc1Oc1cnc(N3CC[C@@H](F)C3)cc12 [Example 929] = 0.3
• NC1=N[C@@]2(CO1)c1cc(-c3cncc(F)c3)ccc1Oc1cnc(N3CCC(F)(F)CC3)cc12 [Example 414] = 1.5
• NC1=N[C@@]2(CO1)c1cc(C#CC3CC3)ccc1Oc1ncc(N3CCC(F)(F)C3)cc12 [Example 178] = 3.1
• Cc1cncc(-c2ccc3c(c2)[C@@]2(COC(N)=N2)c2cc(C4=CCOCC4)cc(F)c2O3)c1 [Example 446] = 1.9
• CC#Cc1cncc(-c2ccc3c(c2)[C@@]2(COC(N)=N2)c2cc(C4=CCOCC4)cnc2O3)c1 [Example 942] = 0.4

[1] NC1=N[C@@]2(CS1)c1cc(-c3cccnc3F)ccc1Oc1c2cc(-c2ccncc2)nc1F [Example 1027]
[2] NC1=N[C@@]2(CO1)c1cc(-c3cccnc3F)ccc1Oc1c(F)cc(N3CC4CC4C3)cc12 (stereo partly drawn) [Example 1054]
[3] Cc1cc(-c2cc3c(cn2)Oc2ccc(-c4cccnc4F)cc2[C@@]32COC(N)=N2)on1 [Example 364]
[4] COc1cc2c(c(F)c1F)Oc1ccc(Br)cc1[C@]21COC(N)=N1 [Example 1002]
[5] NC1=N[C@@]2(CO1)c1cc(-c3cccnc3)c(F)cc1Oc1c(F)cc(N3CCOCC3)cc12 [Example 861]
Q: Hey, can you sort those compounds up there by IC50, smallest first? Give your ranking as a list of the labels in the requested order.
Ans: 1, 2, 5, 3, 4
